Assay: Ratio of drug level in brain to blood in Wistar rat at 1.7 MBq, iv administered as single dose measured after 60 mins post-injection
Assay type: ADME, organism-based
reported_endpoint: Kp at 1 h

compound_string=O=C1Nc2ccccc2/C1=C/c1ccc([18F])cc1 result=3.2

---

Assay: Metabolic stability in Wistar rat blood assessed as compound remaining at 30 MBq, iv after 1 min by radio-HPLC analysis
Format: ADME, organism-based
Conditions: read-out: Stability
reported_endpoint: remaining at 1 min (%)

compound_string=O=C1Nc2ccccc2/C1=C/c1ccc([18F])cc1 measured_number=70

---

Experiment: Ratio of drug level in pancreas to blood in Wistar rat at 1.7 MBq, iv administered as single dose measured after 60 mins post-injection
Type: ADME, organism-based
reported_endpoint: Kp at 1 h

compound_string=O=C1Nc2ccccc2/C1=C/c1ccc([18F])cc1 measured_number=2.1

---

Assay: Ratio of drug level in lung to blood in Wistar rat at 1.7 MBq, iv administered as single dose measured after 60 mins post-injection
Format: ADME, organism-based
reported_endpoint: Kp at 1 h

compound_string=O=C1Nc2ccccc2/C1=C/c1ccc([18F])cc1 reported_endpoint="Kp at 1 h" result=1.4

---

Assay: Ratio of drug level in brown adipose tissue to blood in Wistar rat at 1.7 MBq, iv administered as single dose measured after 60 mins post-injection
Type: ADME, organism-based
reported_endpoint: Kp at 1 h

compound_string=O=C1Nc2ccccc2/C1=C/c1ccc([18F])cc1 measured_number=4.3

---

Assay: Ratio of drug level in liver to blood in Wistar rat at 1.7 MBq, iv administered as single dose measured after 60 mins post-injection
Format: ADME, organism-based
reported_endpoint: Kp at 1 h

compound_string=O=C1Nc2ccccc2/C1=C/c1ccc([18F])cc1 measured_number=7.9

---

Experiment: Ratio of drug level in brown adipose tissue to blood in Wistar rat at 1.7 MBq, iv administered as single dose measured after 5 mins post-injection
Type: ADME, organism-based
reported_endpoint: Kp at 5 min

compound_string=O=C1Nc2ccccc2/C1=C/c1ccc([18F])cc1 measured_number=4.1

---

Assay: Octanol-phosphate buffer distribution coefficient, log D at pH 7.4 by shake-flask method
Type: physicochemical
reported_endpoint: logD

compound_string=O=C1Nc2ccccc2/C1=C/c1ccc([18F])cc1 reported_endpoint=logD measured_number=3.39

---

Assay: Ratio of drug level in harderian gland to blood in Wistar rat at 1.7 MBq, iv administered as single dose measured after 60 mins post-injection
Type: ADME, organism-based
reported_endpoint: Kp at 1 h

compound_string=O=C1Nc2ccccc2/C1=C/c1ccc([18F])cc1 result=6.8

---

Experiment: Metabolic stability in Wistar rat blood assessed as compound remaining at 30 MBq, iv after 10 mins by radio-HPLC analysis
Assay type: ADME, organism-based
Conditions: read-out: Stability
reported_endpoint: remaining at 10 min (%)

compound_string=O=C1Nc2ccccc2/C1=C/c1ccc([18F])cc1 measured_number=18

---

Test: Metabolic stability in Wistar rat plasma assessed as compound remaining at 0.5 MBq after 60 mins by radio-HPLC analysis
Format: ADME, cell-free
Conditions: read-out: Stability
reported_endpoint: remaining at 1 h, 0.5 MBq (%)

compound_string=O=C1Nc2ccccc2/C1=C/c1ccc([18F])cc1 measured_number=96
